Listed here: items and their measured IC50.
system: MCF7; experiment: Antiproliferative activity against human MCF7 cells; assay type: functional, cell-based; details: Homo sapiens, MCF7
Express the result in nM but write the number alone.

(Q) Look up IC50 for this compound: `Cc1cc(S(=O)(=O)c2ccccc2[N+](=O)[O-])c2ccccc2n1`
(A) 1380

(Q) Look up IC50 for this compound: `Cc1cc(S(=O)(=O)c2ccc(C#N)cc2)c2ccccc2n1`
(A) 1380

(Q) Look up IC50 for this compound: `COc1ccc(Nc2cc(/C=C/c3ccc([N+](=O)[O-])cc3)nc3cc(OC)c(OC)c(OC)c23)cc1OC`
(A) 1130

(Q) Look up IC50 for this compound: `Cc1cc(C)c(S(=O)(=O)Oc2ccc(Cl)c3cccnc23)c(C)c1`
(A) 1380

(Q) Look up IC50 for this compound: `Cc1ccc(S(=O)(=O)Oc2ccc(Cl)c3cccnc23)cc1`
(A) 1380

(Q) Look up IC50 for this compound: `O=S(=O)(Nc1cccc2cccnc12)c1cccc2cccnc12`
(A) 1230
